This collection of values is drawn from paper PMC7968997.

# Subject Of Test: T1, RRM1 analog D114A (Homo sapiens, UniProt Q8IUH3 23-202, D114A;F124A;Y165A)
# T1 sequence: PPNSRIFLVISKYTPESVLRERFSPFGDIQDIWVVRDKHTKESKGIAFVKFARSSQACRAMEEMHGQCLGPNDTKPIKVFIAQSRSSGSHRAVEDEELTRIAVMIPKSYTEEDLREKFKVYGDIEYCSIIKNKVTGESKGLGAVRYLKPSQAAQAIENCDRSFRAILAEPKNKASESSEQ
# Protocol Details: fluorescence polarization
Assay Readout: pKd
pKd here: minus log base 10 of the concentration, concentration in moles per litre.

Given GGACGG (ssRNA) [GGACGG RNA] , state its recorded pKd. 5.95
